Target: CYP1A2 (Homo sapiens (Human))
Sequence (P05177 whole entry): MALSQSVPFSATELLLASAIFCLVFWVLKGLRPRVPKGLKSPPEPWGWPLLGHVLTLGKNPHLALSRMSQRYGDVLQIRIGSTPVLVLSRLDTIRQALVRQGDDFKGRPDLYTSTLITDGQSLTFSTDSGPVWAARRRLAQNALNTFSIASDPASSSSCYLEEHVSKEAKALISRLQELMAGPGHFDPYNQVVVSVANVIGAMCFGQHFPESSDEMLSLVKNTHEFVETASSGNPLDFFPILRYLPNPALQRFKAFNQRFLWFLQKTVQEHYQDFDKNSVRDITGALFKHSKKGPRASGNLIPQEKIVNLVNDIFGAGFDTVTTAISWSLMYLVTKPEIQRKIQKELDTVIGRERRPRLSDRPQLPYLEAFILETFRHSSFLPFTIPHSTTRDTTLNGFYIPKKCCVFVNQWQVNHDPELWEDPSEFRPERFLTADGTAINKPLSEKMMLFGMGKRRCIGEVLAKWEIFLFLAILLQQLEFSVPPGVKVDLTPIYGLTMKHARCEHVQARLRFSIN
Details: microsomes, pH 7.4
pIC50: −log10 of the molar value. Where a name gives a salt, the structure may show the parent alone.
READOUT: pIC50

The recorded pIC50 with CYP1A2 (Homo sapiens (Human)) for COc1ccc(CC(=O)O)cc1Oc1ccc(NC(=O)C(C)(C)C)cc1CSC(C)(C)C [Compound 2, sodium salt] was < 4.30

----------
Assay: Capsule formulation pharmacokinetics in male Beagle dogs
Assay type: in vivo
Settings: male, Beagle, in vivo, po; dog, fasted, EC-Capsule (L100-55), 5 mg/kg
Structures can show the parent of a compound that is named as a salt.
READOUT: Cmax
Write the figure, then the unit, nothing else.

The reported Cmax of the compound COc1ccc(CC(=O)O)cc1Oc1ccc(NC(=O)C(C)(C)C)cc1CSC(C)(C)C [Compound 2, sodium salt] was 14400 ng/mL

----------
Target: CYP3A4 (Homo sapiens (Human), UniProt P08684)
Sequence (P08684 whole entry): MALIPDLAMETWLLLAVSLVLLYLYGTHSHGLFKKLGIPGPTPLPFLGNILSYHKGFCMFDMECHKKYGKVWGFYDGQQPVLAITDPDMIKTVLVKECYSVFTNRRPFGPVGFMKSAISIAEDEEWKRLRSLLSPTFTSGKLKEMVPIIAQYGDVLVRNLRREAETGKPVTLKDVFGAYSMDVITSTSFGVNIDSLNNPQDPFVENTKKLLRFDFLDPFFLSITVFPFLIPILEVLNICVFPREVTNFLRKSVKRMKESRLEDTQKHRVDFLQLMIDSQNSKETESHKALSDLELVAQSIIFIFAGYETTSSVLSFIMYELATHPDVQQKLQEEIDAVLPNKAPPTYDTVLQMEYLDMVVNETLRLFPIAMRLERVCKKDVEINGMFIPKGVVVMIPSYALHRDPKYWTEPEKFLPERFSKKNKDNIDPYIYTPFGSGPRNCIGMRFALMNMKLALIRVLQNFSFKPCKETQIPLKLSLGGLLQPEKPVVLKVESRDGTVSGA
Test: Extracellular cytochrome P450 inhibition (microsomes)
Format: in vitro ADME
Details: 3A4, testosterone 6β-hydroxylation; read-out: IC50
Counter-ions that a name gives are not always drawn.
READOUT: pIC50
In plain terms, pIC50 is the concentration in mol/L turned into minus its base-10 logarithm.

In plain terms, COc1ccc(CC(=O)O)cc1Oc1ccc(NC(=O)C(C)(C)C)cc1CSC(C)(C)C [Compound 2, sodium salt] has a documented pIC50 of 4.59

----------
Test: Plasma concentrations in guinea pig allergic asthma model
Format: in vivo
Conditions: oral, 100 mg/kg, 3 hours post dose, read-out: mean plasma Compound 1 concentration
READOUT: concentration at 3 h (nM)
Answer format: numeric, nM implied, no suffix.

Documented concentration at 3 h of "COc1ccc(CC(=O)O)cc1Oc1ccc(NC(=O)C(C)(C)C)cc1CSC(C)(C)C" : 361

----------
Assay: Regional dosing study in rat (pharmacokinetics)
Type: in vivo
Settings: male, Sprague-Dawley, in vivo, 10 mg/kg, jejunum
Where a name gives a salt, the structure may show the parent alone.
READOUT: bioavailability (%)
Response body: numeric value in %, unit text excluded.

So, COc1ccc(CC(=O)O)cc1Oc1ccc(NC(=O)C(C)(C)C)cc1CSC(C)(C)C [Compound 2, sodium salt] ? Its bioavailability was 44.2

----------
Assay: Phase I single ascending dose study in humans, pharmacokinetics
Type: in vivo, human
Settings: human, plasma; single oral 50 mg capsule, healthy humans, mean; read-out: t1/2 (converted)
Source text: Example 22: Phase I Study in Humans This is a phase 1, Single-Center, Double-Blind Study of Compound 2 in healthy volunteers. To assess: (1) the safety and tolerability of single and multiple doses of Compound 2 following oral administration; and (2) the pharmacokinetics (PK) of Compound 2 after single and multiple doses; and (3) the effects of the pharmacodynamic (PD) responses in healthy subjects to Compound 2 as measured by a PGD2-induced eosinophil shape change assay (ESC). […]
Where a name gives a salt, the structure may show the parent alone.
READOUT: half-life
The number alone won't do; follow it with the unit.

half-life reported for this compound COc1ccc(CC(=O)O)cc1Oc1ccc(NC(=O)C(C)(C)C)cc1CSC(C)(C)C [Compound 2, sodium salt] : 1.49 h

----------
Assay: Capsule formulation pharmacokinetics in male Beagle dogs
Assay type: in vivo
Settings: male, Beagle, in vivo, po; dog, fasted, Capsule, 5.6 mg/kg; read-out: t1/2 24 hr (converted)
Structures can show the parent of a compound that is named as a salt.
READOUT: half-life (h)
Value expressed in h; do not type the unit.

get_value(item= COc1ccc(CC(=O)O)cc1Oc1ccc(NC(=O)C(C)(C)C)cc1CSC(C)(C)C [Compound 2, sodium salt] , readout=half-life) returns 2.8

// data source = patent US9688624B2
